Molecular target: human M3 receptor (Homo sapiens)
Sequence (P20309 whole entry): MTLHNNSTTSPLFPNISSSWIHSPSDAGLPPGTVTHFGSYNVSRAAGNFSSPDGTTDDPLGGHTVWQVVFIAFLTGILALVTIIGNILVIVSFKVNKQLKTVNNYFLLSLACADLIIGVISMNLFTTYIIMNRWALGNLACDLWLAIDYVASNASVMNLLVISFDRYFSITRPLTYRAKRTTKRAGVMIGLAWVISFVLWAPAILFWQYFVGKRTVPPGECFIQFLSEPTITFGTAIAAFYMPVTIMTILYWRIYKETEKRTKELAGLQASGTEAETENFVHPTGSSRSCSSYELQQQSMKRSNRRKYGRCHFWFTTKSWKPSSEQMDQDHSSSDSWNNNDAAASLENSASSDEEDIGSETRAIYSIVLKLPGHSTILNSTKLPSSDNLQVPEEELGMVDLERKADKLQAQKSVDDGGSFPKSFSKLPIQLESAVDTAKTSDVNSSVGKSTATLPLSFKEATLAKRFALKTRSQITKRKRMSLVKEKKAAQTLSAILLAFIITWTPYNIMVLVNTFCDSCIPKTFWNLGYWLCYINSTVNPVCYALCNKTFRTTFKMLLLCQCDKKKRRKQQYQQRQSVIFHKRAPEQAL
Experiment: In vitro functional assay, reversal of EC80 acetylcholine response in CHO-K1 aequorin cells
pIC50: −log10 of the molar value.

- MOLECULE: "N#Cc1ccc(N2C3CCC2CN(C(=O)COC2(c4cc(F)cc(F)c4)CC2)C3)nc1"
  pIC50: "5.00 to 6.00"
- MOLECULE: "N#Cc1ccc(N2C3CCC2CN(C(=O)CCNC2(c4ccc(F)c(F)c4)CC2)C3)nc1"
  pIC50: "5.00 to 6.00"
- MOLECULE: "COc1ccnc(C(F)(F)CCC(=O)N2CC3CCC(C2)N3c2ccc(C#N)cn2)c1"
  pIC50: "6.00 to 7.00"
- MOLECULE: "N#Cc1ccc(N2C3CCC2CN(C(=O)COC2(c4ncccc4F)CCC2)C3)nc1"
  pIC50: "5.00 to 6.00"
- MOLECULE: "COc1cccnc1C(F)(F)CCC(=O)N1CC2CCC(C1)N2c1ccc(C#N)cn1"
  pIC50: "6.00 to 7.00"
- MOLECULE: "COc1cc(C(F)(F)CCC(=O)N2CC3CCC(C2)N3c2ccc(C#N)cn2)ccn1"
  pIC50: "6.00 to 7.00"
- MOLECULE: "C[C@H](NCC(=O)N1CC2CCC(C1)N2c1ccc(C#N)cn1)c1ccc(F)cc1F"
  pIC50: "5.00 to 6.00"
- MOLECULE: "N#Cc1ccc(N2C3CCC2CN(C(=O)CCC(F)(F)c2cccn4ncnc24)C3)nc1"
  pIC50: "6.00 to 7.00"
- MOLECULE: "C[C@@H](OCCC(=O)N1C[C@H]2CC[C@@H](C1)N2c1ccc(C#N)cn1)c1ccccc1"
  pIC50: "< 6.00"
- MOLECULE: "N#Cc1ccc(N2C3CCC2CN(C(=O)COC2(c4ccc(F)c(F)c4)CC2)C3)nc1"
  pIC50: "5.00 to 6.00"
- MOLECULE: "COc1cc(C2(NCC(=O)N3CC4CCC(C3)N4c3ccc(C#N)cn3)CCC2)ccn1"
  pIC50: "5.00 to 6.00"
- MOLECULE: "N#Cc1ccc(N2C3CC[C@H]2CN(C(=O)COC2(c4ccc(F)c(F)c4)CCC2)C3)nc1"
  pIC50: "5.00 to 6.00"
- MOLECULE: "N#Cc1ccc(N2C3CCC2CN(C(=O)CNC2(c4ccc(F)cc4F)CC2)C3)nc1"
  pIC50: "5.00 to 6.00"

----------
Target: UniProt:P08172
Sequence (P08172 whole entry): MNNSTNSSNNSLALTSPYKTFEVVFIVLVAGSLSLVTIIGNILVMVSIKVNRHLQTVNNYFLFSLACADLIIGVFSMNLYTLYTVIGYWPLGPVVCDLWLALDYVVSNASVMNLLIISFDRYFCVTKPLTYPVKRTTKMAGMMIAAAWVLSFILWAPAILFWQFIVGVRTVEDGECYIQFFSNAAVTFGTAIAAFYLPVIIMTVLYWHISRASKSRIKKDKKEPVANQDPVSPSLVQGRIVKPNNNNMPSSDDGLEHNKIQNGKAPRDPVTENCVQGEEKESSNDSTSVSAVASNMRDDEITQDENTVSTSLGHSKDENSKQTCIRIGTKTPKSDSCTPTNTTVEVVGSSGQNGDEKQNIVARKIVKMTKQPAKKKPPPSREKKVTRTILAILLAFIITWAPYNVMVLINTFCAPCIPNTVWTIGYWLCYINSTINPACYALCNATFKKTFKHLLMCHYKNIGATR
Assay: In vitro functional assay, reversal of EC80 acetylcholine response in CHO-K1 aequorin cells
Measured IC50 of individual entries

- COMPOUND: "N#Cc1ccc(N2C3CCC2CN(C(=O)CCNC2(c4ccc(F)c(F)c4)CC2)C3)nc1 [Example 1]"
  IC50: "0.1 to 1 µM"
- COMPOUND: "N#Cc1ccc(N2C3CCC2CN(C(=O)COC2(c4ccc(F)c(F)c4)CC2)C3)nc1 [Example 177]"
  IC50: "1 to 10 µM"
- COMPOUND: "N#Cc1ccc(N2C3CCC2CN(C(=O)COC2(c4cc(F)cc(F)c4)CC2)C3)nc1 [Example 210]"
  IC50: "> 1 µM"
- COMPOUND: "COc1cc(C(F)(F)CCC(=O)N2CC3CCC(C2)N3c2ccc(C#N)cn2)ccn1 [Example 138]"
  IC50: "1 to 10 µM"
- COMPOUND: "C[C@@H](OCCC(=O)N1C[C@H]2CC[C@@H](C1)N2c1ccc(C#N)cn1)c1ccccc1 [Example 304]"
  IC50: "1 to 10 µM"
- COMPOUND: "N#Cc1ccc(N2C3CC[C@H]2CN(C(=O)COC2(c4ccc(F)c(F)c4)CCC2)C3)nc1 [Example 239]"
  IC50: "1 to 10 µM"
- COMPOUND: "COc1cccnc1C(F)(F)CCC(=O)N1CC2CCC(C1)N2c1ccc(C#N)cn1 [Example 162]"
  IC50: "1 to 10 µM"
- COMPOUND: "COc1cc(C2(NCC(=O)N3CC4CCC(C3)N4c3ccc(C#N)cn3)CCC2)ccn1 [Example 118]"
  IC50: "1 to 10 µM"
- COMPOUND: "N#Cc1ccc(N2C3CCC2CN(C(=O)COC2(c4ncccc4F)CCC2)C3)nc1 [Example 250]"
  IC50: "> 1 µM"
- COMPOUND: "N#Cc1ccc(N2C3CCC2CN(C(=O)CCC(F)(F)c2cccn4ncnc24)C3)nc1 [Example 158]"
  IC50: "1 to 10 µM"
- COMPOUND: "COc1ccnc(C(F)(F)CCC(=O)N2CC3CCC(C2)N3c2ccc(C#N)cn2)c1 [Example 147]"
  IC50: "1 to 10 µM"
- COMPOUND: "N#Cc1ccc(N2C3CCC2CN(C(=O)CNC2(c4ccc(F)cc4F)CC2)C3)nc1 [Example 59]"
  IC50: "1 to 10 µM"
- COMPOUND: "C[C@H](NCC(=O)N1CC2CCC(C1)N2c1ccc(C#N)cn1)c1ccc(F)cc1F [Example 87]"
  IC50: "1 to 10 µM"
